Origin of values: patent US20240034736A1

Known IC50 of a selection of molecules
# target-or-test-system: Recombinant human HSD17B13 enzyme (Homo sapiens (Human), UniProt Q7Z5P4)
# Sequence (Q7Z5P4 20-300): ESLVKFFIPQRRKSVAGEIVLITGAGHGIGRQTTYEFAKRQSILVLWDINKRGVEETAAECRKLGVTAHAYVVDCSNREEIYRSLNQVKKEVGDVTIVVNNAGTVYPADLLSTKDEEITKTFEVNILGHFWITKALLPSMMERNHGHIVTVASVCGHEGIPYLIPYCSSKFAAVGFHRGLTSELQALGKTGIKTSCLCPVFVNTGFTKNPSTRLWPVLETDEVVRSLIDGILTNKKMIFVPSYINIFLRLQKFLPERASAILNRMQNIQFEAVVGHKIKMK
# protocol: HSD17b13 NAD(P)H-Glo Biochemical Assay
# cond: 50 uM estradiol, 1 mM NAD+; read-out: HSD17β13 IC50

{"molecule": "CC(C)S(=O)(=O)N1CCN(c2ccc3c(cnn3-c3cc(O)c(F)c(F)c3)c2)CC1", "IC50": "100 to 1000 nM"}
{"molecule": "Oc1cccc(-c2ccc3c(cnn3-c3ccc(F)c(O)c3)c2)c1", "IC50": "100 to 1000 nM"}
{"molecule": "CS(=O)(=O)N1CCN(c2cc3cnn(-c4cc(O)c(F)c(F)c4)c3cc2F)CC1", "IC50": "100 to 1000 nM"}
{"molecule": "Cc1nn(-c2cc(C(F)(F)F)c(F)c(O)c2F)c2cnc(N3CCO[C@H](c4ccccc4)C3)cc12", "IC50": "< 100 nM"}
{"molecule": "O=S(=O)(c1ccc2c(cnn2-c2cc(O)c(F)c(F)c2)c1)N1CCCCC1", "IC50": "1000 to 30000 nM"}
{"molecule": "Oc1cc(F)cc(-n2ncc3cc(-c4ccc(O)c(Cl)c4)ccc32)c1", "IC50": "1000 to 30000 nM"}

Provide the reported IC50 (system: Recombinant human HSD17B13 enzyme (Homo sapiens (Human), UniProt Q7Z5P4)) for CS(=O)(=O)N1CCN(c2cc3cnn(-c4cccc(O)c4C#N)c3cn2)CC1 1000 to 30000 nM

Provide the reported IC50 (system: Recombinant human HSD17B13 enzyme (Homo sapiens (Human), UniProt Q7Z5P4)) for Cc1nn(-c2cc(C(F)(F)F)c(F)c(O)c2F)c2cnc(N3CCN(S(C)(=O)=O)CC34CC4)nc12 < 100 nM

Provide the reported IC50 (system: Recombinant human HSD17B13 enzyme (Homo sapiens (Human), UniProt Q7Z5P4)) for CC1CN(S(C)(=O)=O)CCN1c1ccc2c(cnn2-c2cc(O)c(F)c(C(F)(F)F)c2)c1 (stereo not shown) 100 to 1000 nM

Provide the reported IC50 (system: Recombinant human HSD17B13 enzyme (Homo sapiens (Human), UniProt Q7Z5P4)) for COC1CCN(c2cc3c(C)nn(-c4cc(C(F)(F)F)c(F)c(O)c4F)c3cn2)CC1 100 to 1000 nM

Provide the reported IC50 (system: Recombinant human HSD17B13 enzyme (Homo sapiens (Human), UniProt Q7Z5P4)) for CS(=O)(=O)N1CCN(c2cc(Cl)c3c(cnn3-c3cc(O)c(F)c(F)c3)c2)CC1 1000 to 30000 nM

Provide the reported IC50 (system: Recombinant human HSD17B13 enzyme (Homo sapiens (Human), UniProt Q7Z5P4)) for OCc1ccc(-c2ccc3c(cnn3-c3ccc(F)c(O)c3)c2)c(Cl)c1 100 to 1000 nM

Provide the reported IC50 (system: Recombinant human HSD17B13 enzyme (Homo sapiens (Human), UniProt Q7Z5P4)) for CN(C)C(=O)c1nn(-c2cc(C(F)(F)F)c(F)c(O)c2F)c2ccc(N(C)C3CCOCC3)cc12 1000 to 30000 nM

Provide the reported IC50 (system: Recombinant human HSD17B13 enzyme (Homo sapiens (Human), UniProt Q7Z5P4)) for CS(=O)(=O)N1CCN(c2cc3cnn(-c4cc(O)c(F)c(C(F)(F)F)c4)c3nn2)CC1 1000 to 30000 nM

Provide the reported IC50 (system: Recombinant human HSD17B13 enzyme (Homo sapiens (Human), UniProt Q7Z5P4)) for Oc1ccc(-c2ncc3c(cnn3-c3ccc(F)c(O)c3)n2)c(Cl)c1 100 to 1000 nM

Provide the reported IC50 (system: Recombinant human HSD17B13 enzyme (Homo sapiens (Human), UniProt Q7Z5P4)) for Oc1c(F)c(-n2ncc3nc(N4CCOCC45CC5)ncc32)cc(C(F)(F)F)c1F 100 to 1000 nM

###

# target-or-test-system: Recombinant human HSD17B13 enzyme (Homo sapiens (Human))
# protocol: HSD17b13 NAD(P)H-Glo Biochemical Assay
# cond: 50 uM estradiol, 1 mM NAD+; read-out: HSD17β13 IC50
pIC50: −log10 of the molar value.
Known pIC50 of a selection of compounds

Below: 3 compounds and their reported pIC50.
{"compound": "CS(=O)(=O)N1CCN(c2cc3cnn(-c4cc(O)c(F)c(F)c4)c3cc2C2CC2)CC1 [Compound 21.49]", "measure-name": "pIC50", "reported-result": "6.00 to 7.00"}
{"compound": "CS(=O)(=O)N1CCN(c2cc3cnn(-c4cc(O)c(F)c(Cl)c4)c3cc2F)CC1 [Compound 19.02]", "measure-name": "pIC50", "reported-result": "6.00 to 7.00"}
{"compound": "CC(C)S(=O)(=O)Nc1ccc(-c2ccc3c(cnn3-c3ccc(F)c(O)c3)c2)cc1 [Compound 11]", "measure-name": "pIC50", "reported-result": "6.00 to 7.00"}

Lab note: next compound to report on.
Provide the reported pIC50 (system: Recombinant human HSD17B13 enzyme (Homo sapiens (Human))) for Cc1nn(-c2cc(C(F)(F)F)c(F)c(O)c2F)c2cc(F)c(N3CCN(S(C)(=O)=O)CC34CC4)cc12 [Compound 19.100] > 7.00

###

# target-or-test-system: Recombinant human HSD17B13 enzyme (Homo sapiens (Human), UniProt Q7Z5P4)
# protocol: HSD17b13 NAD(P)H-Glo Biochemical Assay
# cond: 50 uM estradiol, 1 mM NAD+; read-out: HSD17β13 IC50
pIC50: −log10 of the molar value.
measure-name: pIC50

Below: 3 compounds and their reported pIC50.
{"smiles-code": "COC1CCN(c2ccc3c(cnn3-c3cc(O)c(F)c(F)c3)c2)CC1", "pIC50": "6.00 to 7.00"}
{"smiles-code": "Cc1nn(-c2cc(C(F)(F)F)c(F)c(O)c2F)c2ccc(N3CCOCC34CC4)cc12", "pIC50": "> 7.00"}
{"smiles-code": "O=S(=O)(NC1CN(c2cc3cnn(-c4cc(O)c(F)c(F)c4)c3cc2Cl)C1)c1ccccc1", "pIC50": "6.00 to 7.00"}

Lab note: next compound to report on.
Please report pIC50 for the following compound: CS(=O)(=O)N1CCN(c2cc3cnn(-c4cc(O)c(F)c(C(F)(F)F)c4)c3cc2Cl)CC1 > 7.00

###

# target-or-test-system: Recombinant human HSD17B13 enzyme (Homo sapiens (Human))
# protocol: HSD17b13 NAD(P)H-Glo Biochemical Assay
# cond: read-out: HSD17β13 inhibition at 30 uM
measure-name: inhibition at 30 µM

{"molecule": "COC(=O)c1cc2cc(N3CCN(S(C)(=O)=O)CC3)ccc2n1-c1ccc(F)c(O)c1 [Compound 21.62]", "measure-name": "inhibition at 30 µM", "reported-result": "< 20%"}
{"molecule": "CS(=O)(=O)N1CCN(c2cc3cn(-c4cc(O)cc(C#N)c4)nc3cn2)CC1 [Compound 19.35]", "measure-name": "inhibition at 30 µM", "reported-result": "49%"}
{"molecule": "CS(=O)(=O)N1CCN(c2cc3cn(-c4ccc(C#N)c(O)c4)nc3cn2)CC1 [Compound 19.37]", "measure-name": "inhibition at 30 µM", "reported-result": "43%"}

Please report inhibition at 30 µM for the following molecule: CS(=O)(=O)N1CCN(c2cc3cn(-c4cccc(O)c4C#N)nc3cn2)CC1 [Compound 19.40] 39%

Please report inhibition at 30 µM for the following molecule: Cc1ccc(O)c(F)c1-n1ncc2cc(N3CCN(S(C)(=O)=O)CC3)ncc21 [Compound 19.43] 45%

Please report inhibition at 30 µM for the following molecule: Cc1nn(-c2cc(O)ccc2C#N)c2cnc(N(C)C3CCOCC3)cc12 [Compound 19.61] 55%

Please report inhibition at 30 µM for the following molecule: CS(=O)(=O)N1CCN(c2ccc3c(c2)cc(C(=O)O)n3-c2ccc(F)c(O)c2)CC1 [Compound 21.61] < 20%

Please report inhibition at 30 µM for the following molecule: CS(=O)(=O)N1CCN(c2cc3cnn(-c4ccc(C#N)c(O)c4)c3cn2)CC1 [Compound 19.36] 40%

Please report inhibition at 30 µM for the following molecule: Cc1cc(N2CCN(S(C)(=O)=O)CC2)cc2cnn(-c3cc(O)c(F)c(F)c3)c12 [Compound 21.17] 47%

Please report inhibition at 30 µM for the following molecule: CS(=O)(=O)N1CCN(c2cc3cnn(-c4cc(O)cc(C#N)c4)c3cn2)CC1 [Compound 19.123] 30%

Please report inhibition at 30 µM for the following molecule: CS(=O)(=O)N1CCC(C(=O)O)(c2ccc3c(cnn3-c3cc(O)c(F)c(F)c3)c2)CC1 [Compound 28] 49%

###

Known pIC50 of a selection of molecules
# target-or-test-system: Recombinant human HSD17B13 enzyme (Homo sapiens (Human), UniProt Q7Z5P4)
# protocol: HSD17b13 NAD(P)H-Glo Biochemical Assay
# cond: 50 uM estradiol, 1 mM NAD+; read-out: HSD17β13 IC50
pIC50: −log10 of the molar value.

Provide the reported pIC50 (system: Recombinant human HSD17B13 enzyme (Homo sapiens (Human), UniProt Q7Z5P4)) for Cc1nn(-c2cc(C(F)(F)F)c(F)c(O)c2F)c2cc(F)c(N3CCOCC34CC4)nc12 > 7.00

Provide the reported pIC50 (system: Recombinant human HSD17B13 enzyme (Homo sapiens (Human), UniProt Q7Z5P4)) for N#Cc1ccc(-c2ccc3c(cnn3-c3ccc(F)c(O)c3)c2)c(Cl)c1 6.00 to 7.00

Provide the reported pIC50 (system: Recombinant human HSD17B13 enzyme (Homo sapiens (Human), UniProt Q7Z5P4)) for Cc1cc2c(cnn2-c2cc(O)c(F)c(F)c2)cc1N1CCN(S(C)(=O)=O)CC1 4.52 to 6.00
